# Test system: SF-268 CNS
# Protocol Notes: NCI-60 one-dose screen, 48 h (100 = growth as untreated, 0 = no growth, -100 = all killed)
# Condition Notes: 10 µM unless noted
About 83,000 compounds went through this panel and 20% of them were active in at least one assay; those are over-represented in the sample as a whole.
Tick Fulfilled if growth is 80% or greater. Tick Not fulfilled if growth is less than 80%.

- Compound: "Cc1cccc2sc(/N=C(\\N)C(Br)Br)nc12"
  Discrete Label: "Not fulfilled"

In plain terms: is recorded growth at least 80% for `CN(C)c1ccc(-c2c(NC(C)(C)C)nc3c(OCCc4ccccc4)cccn23)cc1` ?
Not fulfilled

In plain terms: is recorded growth at least 80% for `Cc1nc(-c2cc3ccccc3oc2=O)ccc1C(=O)/C=C/c1ccc(N2CCOCC2)cc1` ?
Not fulfilled

In plain terms: is recorded growth at least 80% for `CCN(CC)c1ccc(C=O)c(OCc2cn(CC(=O)Nc3ccc(Cl)cc3)nn2)c1` ?
Fulfilled

In plain terms: is recorded growth at least 80% for `COc1cccc(N2CCN(c3ncnc4c3[nH]c3ccc(F)cc34)C[C@@H]2C)c1` ?
Not fulfilled

In plain terms: is recorded growth at least 80% for Cc1cc(C(NC(=O)CCCCCNc2cccc3c2C(=O)N(C2CCC(=O)NC2=O)C3=O)c2cccnc2)c(O)c2ncccc12 (centres undefined) ?
Not fulfilled

In plain terms: is recorded growth at least 80% for COc1cc(OC)c(C2C(Cl)C(=O)N2Nc2ncnc3ccccc23)cc1OC (centres undefined) ?
Fulfilled

In plain terms: is recorded growth at least 80% for `CC(=O)Oc1ccccc1C(=O)Nc1ccc(C(=O)/C=C/c2ccncc2)cc1` ?
Fulfilled

In plain terms: is recorded growth at least 80% for `Cc1ccc2ccc3ccc(C)nc3c2n1.Cc1ccc2ccc3ccc(C)nc3c2n1.Oc1c(Cl)cc(Cl)c2ccc(CN3CCCCC3)nc12.[Ru]` ?
Not fulfilled

In plain terms: is recorded growth at least 80% for `Cc1ccc(/C=C/c2nn3c(-c4ccco4)nnc3s2)cc1C` ?
Fulfilled

In plain terms: is recorded growth at least 80% for `Nc1cc(-c2c[nH]c3ccc(F)cc23)nc2cc(-c3c[nH]c4ccc(F)cc34)nn12` ?
Fulfilled
